Test system: blood of patients with B-ALL
test description: Hemogram of blood of patients with B-ALL after exposure
Assay type: cell-based
condition details: 10 µg/ml, 3 hours, 37.0°C
The entries below are paired with their reported Segmented (s/i) neutrophils.

Take a look at these entries with their results.
molecule	result
COc1cc2c(cc1OC)C(c1cc3c(cc1Br)OCO3)NCC2 (stereo not shown)	9,4±0,9 %
COc1cc2c(cc1OC)C(c1cc3c(cc1Cl)OCO3)NCC2 (stereo not shown)	11,1±2,0 %
Nc1ccn([C@@H]2O[C@H](CO)[C@@H](O)[C@@H]2O)c(=O)n1 [Cytosar, cytarabine, reference compound]	6,1±0,9%

For the next question, use this molecule.
# Segmented (s/i) neutrophils (molecule: COc1cccc2c1C(=O)c1c(O)c3c(c(O)c1C2=O)C[C@@](O)(C(=O)CO)C[C@@H]3O[C@H]1C[C@H](N)[C@H](O)[C@H](C)O1 [Doxorubicin, doxorubicin, reference compound] ) is 4,9±0,9%

---

Reported Segmented (s/i) neutrophils values are given for each entry in this list.
System: blood of patients with ALL
test description: Hemogram of blood of patients with ALL after exposure
Assay type: cell-based
condition details: 10 µg/ml, 3 hours, 37.0°C

compound	result
Nc1ccn([C@@H]2O[C@H](CO)[C@@H](O)[C@@H]2O)c(=O)n1 [Cytosar, cytarabine, reference compound]	2,4±0,6%
COc1cc2c(cc1OC)C(c1cc3c(cc1Cl)OCO3)NCC2 (stereo not shown)	3,7±0,7 %
COc1cc2c(cc1OC)C(c1cc3c(cc1Br)OCO3)NCC2 (stereo not shown)	4,2±1,0 %

Given item COc1cccc2c1C(=O)c1c(O)c3c(c(O)c1C2=O)C[C@@](O)(C(=O)CO)C[C@@H]3O[C@H]1C[C@H](N)[C@H](O)[C@H](C)O1 [Doxorubicin, doxorubicin, reference compound] , the value recorded as its Segmented (s/i) neutrophils is 2,2±0,3%

---

Test system: blood of patients with AML
test description: Hemogram of blood of patients with AML after exposure (Example 12, Table 9)
Assay type: cell-based
condition details: AML (Table 9); 10 µg/ml; 3 hours, 37.0°C
Below: a set of entries, each annotated with reported Blasts.

Short answer for COc1cc2c(cc1OC)C(c1cc3c(cc1Br)OCO3)NCC2 (stereo not shown) : Blasts was 63,6±2,3 %

---

test description: Acute toxicity study (LD50)
condition details: both, outbred white, mouse, in vivo, ip
measure name: LD50 at 1 week (mg/kg)
Just the number please, in mg/kg, no unit attached.

get_value(item= COc1cccc2c1C(=O)c1c(O)c3c(c(O)c1C2=O)C[C@@](O)(C(=O)CO)C[C@@H]3O[C@H]1C[C@H](N)[C@H](O)[C@H](C)O1 [Doxorubicin, doxorubicin, reference compound] , readout=LD50 at 1 week) returns 10.8

---

System: blood of patients with AML
test description: Hemogram of blood of patients with AML after exposure (Example 12, Table 9)
Format: cell-based
condition details: AML (Table 9); 10 µg/ml; 3 hours, 37.0°C
Quick list: Eosinophils per entry.

Here is how some compounds turned out for Eosinophils.
compound	Eosinophils
COc1cccc2c1C(=O)c1c(O)c3c(c(O)c1C2=O)C[C@@](O)(C(=O)CO)C[C@@H]3O[C@H]1C[C@H](N)[C@H](O)[C@H](C)O1 [Doxorubicin, doxorubicin, reference compound]	0,8±0,7%
COc1cc2c(cc1OC)C(c1cc3c(cc1Cl)OCO3)NCC2 (stereo not shown)	0,8±0,5%
COc1cc2c(cc1OC)C(c1cc3c(cc1Br)OCO3)NCC2 (stereo not shown)	0,4±0,2%

The measured Eosinophils associated with Nc1ccn([C@@H]2O[C@H](CO)[C@@H](O)[C@@H]2O)c(=O)n1 [Cytosar, cytarabine, reference compound] reads 1,0±0,9%

---

Tested on: blood of patients with leukemia (combined group)
test description: Hemogram of blood of patients with leukemia (combined group) after exposure
Assay type: cell-based
condition details: 10 µg/ml, 3 hours, 37.0°C
Reported Promyelocytes values are given for each entry in this list.

Use these answered entries as a reference point.
compound	result
COc1cccc2c1C(=O)c1c(O)c3c(c(O)c1C2=O)C[C@@](O)(C(=O)CO)C[C@@H]3O[C@H]1C[C@H](N)[C@H](O)[C@H](C)O1 [Doxorubicin, doxorubicin, reference compound]	0,0±0,000%
COc1cc2c(cc1OC)C(c1cc3c(cc1Cl)OCO3)NCC2 (stereo not shown) [Compound F2]	3,8±2,1%
COc1cc2c(cc1OC)C(c1cc3c(cc1Br)OCO3)NCC2 (stereo not shown) [Compound F1]	5,0±0,6^ %

Log: blood of patients with leukemia (combined group), compound Nc1ccn([C@@H]2O[C@H](CO)[C@@H](O)[C@@H]2O)c(=O)n1 [Cytosar, cytarabine, reference compound] , Promyelocytes = 0,2±0,1%

---

Listed here are molecules together with their documented Monocytes.
Test system: blood of patients with leukemia (combined group)
test description: Hemogram of blood of patients with leukemia (combined group) after exposure
Format: cell-based
condition details: 10 µg/ml, 3 hours, 37.0°C

Below are worked cases with known answers.
molecule	target	result
COc1cc2c(cc1OC)C(c1cc3c(cc1Cl)OCO3)NCC2 (stereo not shown) [Compound F2]	blood of patients with leukemia (combined group)	4,7±0,7 %
COc1cc2c(cc1OC)C(c1cc3c(cc1Br)OCO3)NCC2 (stereo not shown) [Compound F1]	blood of patients with leukemia (combined group)	4,9±0,6 %
Nc1ccn([C@@H]2O[C@H](CO)[C@@H](O)[C@@H]2O)c(=O)n1 [Cytosar, cytarabine, reference compound]	blood of patients with leukemia (combined group)	3,5±0,6 %

Now turn to the next molecule.
Documented Monocytes of COc1cccc2c1C(=O)c1c(O)c3c(c(O)c1C2=O)C[C@@](O)(C(=O)CO)C[C@@H]3O[C@H]1C[C@H](N)[C@H](O)[C@H](C)O1 [Doxorubicin, doxorubicin, reference compound] : 5,3±1,2%

---

Test system: blood of patients with AML
test description: Hemogram of blood of patients with AML after exposure (Example 14, Table 11)
Type: cell-based
condition details: AML (Table 11); 10 µg/ml; 3 hours, 37.0°C
measure name: Monocytes

Worked examples, 3 compounds total:
compound	Monocytes
COc1cc2c(cc1OC)C(c1cc3c(cc1Cl)OCO3)NCC2 (stereo not shown)	1,8±0,3%
Nc1ccn([C@@H]2O[C@H](CO)[C@@H](O)[C@@H]2O)c(=O)n1 [Cytosar, cytarabine, reference compound]	4,9±1,2 %
COc1cc2c(cc1OC)C(c1cc3c(cc1Br)OCO3)NCC2 (stereo not shown)	2.0±0,6^ %

Record COc1cccc2c1C(=O)c1c(O)c3c(c(O)c1C2=O)C[C@@](O)(C(=O)CO)C[C@@H]3O[C@H]1C[C@H](N)[C@H](O)[C@H](C)O1 [Doxorubicin, doxorubicin, reference compound] / blood of patients with AML, Monocytes recorded as 11.2±2,3 %

---

Below is a list of entries, each paired with its recorded Segmented (s/i) neutrophils value.
Tested on: blood of patients with AML
test description: Hemogram of blood of patients with AML after exposure (Example 12, Table 9)
Format: cell-based
condition details: AML (Table 9); 10 µg/ml; 3 hours, 37.0°C

Below: 3 molecules and their reported Segmented (s/i) neutrophils.
molecule	Segmented (s/i) neutrophils
COc1cc2c(cc1OC)C(c1cc3c(cc1Br)OCO3)NCC2 (stereo not shown)	7,0±0,7 %
COc1cccc2c1C(=O)c1c(O)c3c(c(O)c1C2=O)C[C@@](O)(C(=O)CO)C[C@@H]3O[C@H]1C[C@H](N)[C@H](O)[C@H](C)O1 [Doxorubicin, doxorubicin, reference compound]	5,5±1,2%
Nc1ccn([C@@H]2O[C@H](CO)[C@@H](O)[C@@H]2O)c(=O)n1 [Cytosar, cytarabine, reference compound]	5,6±1,2%

The record that follows has no Segmented (s/i) neutrophils shown yet.
So, COc1cc2c(cc1OC)C(c1cc3c(cc1Cl)OCO3)NCC2 (stereo not shown) ? Its Segmented (s/i) neutrophils was 7,0±1,1 %

---

In this section we review reported Band (s/n) neutrophils values for a set of compounds.
System: blood of patients with B-ALL
test description: Hemogram of blood of patients with B-ALL after exposure
Format: cell-based
condition details: 10 µg/ml, 3 hours, 37.0°C

compound	Band (s/n) neutrophils
COc1cccc2c1C(=O)c1c(O)c3c(c(O)c1C2=O)C[C@@](O)(C(=O)CO)C[C@@H]3O[C@H]1C[C@H](N)[C@H](O)[C@H](C)O1 [Doxorubicin, doxorubicin, reference compound]	0,7±0,2%
COc1cc2c(cc1OC)C(c1cc3c(cc1Br)OCO3)NCC2 (stereo not shown)	1,4±0,4%
COc1cc2c(cc1OC)C(c1cc3c(cc1Cl)OCO3)NCC2 (stereo not shown)	1,7±0,4%

From here, focus on the item given below.
Measured Band (s/n) neutrophils of Nc1ccn([C@@H]2O[C@H](CO)[C@@H](O)[C@@H]2O)c(=O)n1 [Cytosar, cytarabine, reference compound] : 0,6±0,3%
